# assay target: SIK1 (Homo sapiens, UniProt P57059)
# Sequence (P57059 whole entry): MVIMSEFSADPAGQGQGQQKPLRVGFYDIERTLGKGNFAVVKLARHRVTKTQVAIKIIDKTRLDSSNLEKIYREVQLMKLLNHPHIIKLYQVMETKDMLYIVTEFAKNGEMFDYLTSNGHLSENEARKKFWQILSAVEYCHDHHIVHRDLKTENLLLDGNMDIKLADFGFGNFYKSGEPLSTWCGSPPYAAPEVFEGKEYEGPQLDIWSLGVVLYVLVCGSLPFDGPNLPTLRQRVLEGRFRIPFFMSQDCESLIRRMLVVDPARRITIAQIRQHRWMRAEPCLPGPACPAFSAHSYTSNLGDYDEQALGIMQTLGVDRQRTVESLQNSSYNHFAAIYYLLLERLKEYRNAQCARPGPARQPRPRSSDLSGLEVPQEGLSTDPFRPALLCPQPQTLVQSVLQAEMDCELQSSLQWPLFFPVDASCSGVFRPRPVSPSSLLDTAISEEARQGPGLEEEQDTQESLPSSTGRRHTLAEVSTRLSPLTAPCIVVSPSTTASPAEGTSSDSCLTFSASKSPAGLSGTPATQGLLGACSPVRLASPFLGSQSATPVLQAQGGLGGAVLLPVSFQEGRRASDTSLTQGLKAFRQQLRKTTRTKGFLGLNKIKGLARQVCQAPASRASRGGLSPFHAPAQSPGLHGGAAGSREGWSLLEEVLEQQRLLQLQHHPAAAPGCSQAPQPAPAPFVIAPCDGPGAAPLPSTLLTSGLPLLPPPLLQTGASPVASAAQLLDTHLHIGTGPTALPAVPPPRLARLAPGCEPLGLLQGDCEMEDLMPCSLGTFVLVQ
# assay comment: NanoBRET target engagement
# experimental parameters: lysed mode, HEK293T, tracer displacement
pIC50: −log10 of the molar value.
Quick rule: pIC50 of at least 7 means Met, below that means Not met.

molecule	assay target	assigned label
CNc1ncc2cc(-c3cc(Cl)ccc3Br)c(=O)n(CCCCN)c2n1 [compound 10]	SIK1 (Homo sapiens, UniProt P57059)	Not met
CNc1ncc2cc(-c3cc(Br)ccc3Cl)c(=O)n(CCCCN)c2n1 [compound 6]	SIK1 (Homo sapiens, UniProt P57059)	Not met
CNc1ncc2cc(-c3cc(C(F)(F)F)ccc3Cl)c(=O)n(CCCCN)c2n1 [compound 9]	SIK1 (Homo sapiens, UniProt P57059)	Not met
CNc1ncc2cc(-c3ccccc3Cl)c(=O)n(CCCCN)c2n1 [compound 4]	SIK1 (Homo sapiens, UniProt P57059)	Met

## Task In plain terms: is recorded pIC50 at least 7 for CNc1ncc2cc(-c3cc(Cl)ccc3Cl)c(=O)n(CCCCN)c2n1 [compound 8] ?
## Result Not met

## Task In plain terms: is recorded pIC50 at least 7 for CNc1ncc2cc(-c3cc(Br)ccc3Cl)c(=O)n(C[C@H]3OC[C@H](N)CO3)c2n1 [compound 7] ?
## Result Not met

## Task In plain terms: is recorded pIC50 at least 7 for CNc1ncc2cc(-c3cc(F)c(-c4cccc(C)n4)cc3F)c(=O)n(CCCCN)c2n1 [compound 12] ?
## Result Met

## Task In plain terms: is recorded pIC50 at least 7 for CNc1ncc2cc(-c3cc(Br)ccc3Br)c(=O)n(CCCCN)c2n1 [compound 11] ?
## Result Not met

###

# assay target: BMX (Homo sapiens)
# Sequence (P51813 whole entry): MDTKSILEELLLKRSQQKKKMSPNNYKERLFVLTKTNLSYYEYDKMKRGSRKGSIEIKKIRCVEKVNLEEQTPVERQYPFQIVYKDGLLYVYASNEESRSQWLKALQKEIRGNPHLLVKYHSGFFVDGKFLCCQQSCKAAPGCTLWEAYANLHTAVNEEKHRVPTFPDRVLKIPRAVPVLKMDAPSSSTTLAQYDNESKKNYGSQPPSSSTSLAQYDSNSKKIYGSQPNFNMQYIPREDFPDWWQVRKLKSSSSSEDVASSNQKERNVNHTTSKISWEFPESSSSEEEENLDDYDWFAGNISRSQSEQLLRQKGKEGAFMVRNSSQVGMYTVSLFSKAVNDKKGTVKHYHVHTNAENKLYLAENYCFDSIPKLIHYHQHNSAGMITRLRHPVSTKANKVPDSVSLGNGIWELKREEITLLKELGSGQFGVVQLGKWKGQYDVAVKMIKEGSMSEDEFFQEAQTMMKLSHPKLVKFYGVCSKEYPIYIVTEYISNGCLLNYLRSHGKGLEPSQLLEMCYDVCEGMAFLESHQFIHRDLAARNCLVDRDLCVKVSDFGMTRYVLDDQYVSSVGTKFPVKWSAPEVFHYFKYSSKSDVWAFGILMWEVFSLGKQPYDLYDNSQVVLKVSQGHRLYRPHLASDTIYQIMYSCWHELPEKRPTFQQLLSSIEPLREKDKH
# assay comment: NanoBRET target engagement
pIC50: −log10 of the molar value.
metric name: pIC50

## Task Recorded pIC50 of "CNc1ncc2cc(-c3cc(Cl)ccc3Cl)c(=O)n(CCCCN)c2n1" , please.
## Result < 6.00

###

# assay target: ABL1 (Homo sapiens, UniProt P00519)
# Sequence (P00519 whole entry): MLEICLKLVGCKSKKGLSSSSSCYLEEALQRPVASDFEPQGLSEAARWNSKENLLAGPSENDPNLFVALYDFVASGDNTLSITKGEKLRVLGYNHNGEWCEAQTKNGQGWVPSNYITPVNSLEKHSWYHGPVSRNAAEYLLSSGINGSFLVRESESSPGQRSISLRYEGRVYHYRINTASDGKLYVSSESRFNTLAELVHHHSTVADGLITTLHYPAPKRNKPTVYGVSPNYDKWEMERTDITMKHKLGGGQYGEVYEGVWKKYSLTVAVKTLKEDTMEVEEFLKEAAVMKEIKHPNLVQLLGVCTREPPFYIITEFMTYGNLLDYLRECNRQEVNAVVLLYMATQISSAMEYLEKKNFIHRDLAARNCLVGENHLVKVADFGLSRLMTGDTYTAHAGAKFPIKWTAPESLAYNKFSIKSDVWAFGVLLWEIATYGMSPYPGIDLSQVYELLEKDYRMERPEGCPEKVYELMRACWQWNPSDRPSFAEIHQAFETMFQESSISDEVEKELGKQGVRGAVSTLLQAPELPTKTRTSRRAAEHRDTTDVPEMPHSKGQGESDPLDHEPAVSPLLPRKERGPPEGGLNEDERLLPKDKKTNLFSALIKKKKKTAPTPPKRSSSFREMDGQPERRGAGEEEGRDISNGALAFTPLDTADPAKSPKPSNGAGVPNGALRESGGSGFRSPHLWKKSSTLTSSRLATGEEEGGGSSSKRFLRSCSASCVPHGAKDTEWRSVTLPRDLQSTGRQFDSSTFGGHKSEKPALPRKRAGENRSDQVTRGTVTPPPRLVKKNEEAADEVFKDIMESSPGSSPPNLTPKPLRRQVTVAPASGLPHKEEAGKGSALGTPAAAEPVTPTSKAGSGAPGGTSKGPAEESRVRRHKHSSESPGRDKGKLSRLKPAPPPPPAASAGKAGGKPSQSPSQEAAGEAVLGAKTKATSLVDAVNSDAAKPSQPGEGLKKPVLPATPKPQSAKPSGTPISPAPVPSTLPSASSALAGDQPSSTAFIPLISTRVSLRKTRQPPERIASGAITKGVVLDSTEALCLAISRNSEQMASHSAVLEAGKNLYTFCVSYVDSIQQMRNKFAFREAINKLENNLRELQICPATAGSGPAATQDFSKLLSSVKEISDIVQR
# assay comment: NanoBRET target engagement
pIC50: −log10 of the molar value.
metric name: pIC50

CNc1ncc2cc(-c3cc(Cl)ccc3Cl)c(=O)n(CCCCN)c2n1 < 6.00

Next up:
## Task Recorded pIC50 of "CNc1ncc2cc(-c3ccccc3Cl)c(=O)n(CCCCN)c2n1" , please.
## Result < 6.00

###

# assay target: EpHA5 (Homo sapiens)
# Sequence (P54756 25-1037): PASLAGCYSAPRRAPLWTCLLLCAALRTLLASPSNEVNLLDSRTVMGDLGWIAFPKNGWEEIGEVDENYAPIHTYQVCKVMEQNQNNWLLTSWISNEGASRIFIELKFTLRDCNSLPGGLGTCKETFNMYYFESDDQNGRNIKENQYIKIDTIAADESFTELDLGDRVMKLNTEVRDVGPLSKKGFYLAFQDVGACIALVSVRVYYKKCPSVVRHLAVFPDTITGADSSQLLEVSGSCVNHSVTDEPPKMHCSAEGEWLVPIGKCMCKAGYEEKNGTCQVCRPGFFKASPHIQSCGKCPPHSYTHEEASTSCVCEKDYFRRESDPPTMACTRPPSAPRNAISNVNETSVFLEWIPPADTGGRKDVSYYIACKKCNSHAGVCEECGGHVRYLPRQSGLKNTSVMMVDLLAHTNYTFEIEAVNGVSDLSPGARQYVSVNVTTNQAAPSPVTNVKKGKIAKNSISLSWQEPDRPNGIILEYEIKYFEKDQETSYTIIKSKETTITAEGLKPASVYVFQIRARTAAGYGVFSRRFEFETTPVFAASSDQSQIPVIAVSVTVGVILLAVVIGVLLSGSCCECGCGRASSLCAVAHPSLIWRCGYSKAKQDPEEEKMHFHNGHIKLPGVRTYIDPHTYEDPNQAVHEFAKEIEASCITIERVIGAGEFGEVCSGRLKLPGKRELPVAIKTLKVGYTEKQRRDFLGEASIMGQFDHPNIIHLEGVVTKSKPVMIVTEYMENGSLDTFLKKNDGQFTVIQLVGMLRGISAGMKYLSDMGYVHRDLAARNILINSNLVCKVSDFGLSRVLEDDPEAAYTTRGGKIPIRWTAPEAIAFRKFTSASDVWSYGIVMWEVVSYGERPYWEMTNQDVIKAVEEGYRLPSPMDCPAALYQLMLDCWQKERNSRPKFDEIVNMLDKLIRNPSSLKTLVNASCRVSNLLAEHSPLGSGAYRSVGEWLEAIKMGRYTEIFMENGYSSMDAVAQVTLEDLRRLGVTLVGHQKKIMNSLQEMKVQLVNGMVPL
# assay comment: NanoBRET target engagement
Reported values of IC50 for individual entries

compound	IC50
CNc1ncc2cc(-c3ccccc3Cl)c(=O)n(CCCCN)c2n1 [compound 4]	928 nM

Next up:
## Task Recorded IC50 of CNc1ncc2cc(-c3cc(Cl)ccc3Cl)c(=O)n(CCCCN)c2n1 [compound 8] , please.
## Result > 1000 nM
